Each entry below carries its recorded pIC50.
- Test system: KMS-12-BM myeloma cell line
- PROCEDURE_SUMMARY: Pim KMS-12 cell assay (phospho-BAD S112 / total BAD, MSD)
- ASSAY_CONTEXT: Homo sapiens, KMS-12-BM, read-out: KMS-12-BM IC50 IP
pIC50: −log10 of the molar value.

{"STRUCTURE": "Cc1cccc(C)c1Nc1ccc2cccc(-c3cc4c([nH]3)CCNC4=O)c2n1", "pIC50": 4.98}
{"STRUCTURE": "O=c1[nH]cnc2[nH]c(-c3cccc4ccc(Nc5ccccc5)nc34)cc12", "pIC50": 5.41}
{"STRUCTURE": "Cc1cccc(Nc2ccc3cccc(-c4cc5c([nH]4)CCNC5=O)c3n2)c1", "pIC50": 4.88}

###

Each entry below carries its recorded IC50.
- TARGET_SYSTEM: Pim-2 (Homo sapiens (Human))
- Sequence (Q9P1W9 whole entry): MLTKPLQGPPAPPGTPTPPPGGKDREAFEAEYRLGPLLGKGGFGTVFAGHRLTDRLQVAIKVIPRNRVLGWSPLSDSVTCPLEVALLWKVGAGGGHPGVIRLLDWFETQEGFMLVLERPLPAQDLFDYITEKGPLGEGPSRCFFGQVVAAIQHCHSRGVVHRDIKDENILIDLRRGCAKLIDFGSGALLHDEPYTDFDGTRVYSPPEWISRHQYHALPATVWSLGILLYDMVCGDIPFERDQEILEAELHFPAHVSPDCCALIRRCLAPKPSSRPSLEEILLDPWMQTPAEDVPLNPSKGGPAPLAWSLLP
- PROCEDURE_SUMMARY: Pim enzyme assay (HTRF, 96-well), Pim-2
- Type: biochemical
- ASSAY_CONTEXT: full length recombinant Pim-2, biotinylated-BAD (S112) peptide, 10-point curve, 45 min RT, read-out: Pim-2 IC50 IP

{"COMPOUND": "Nc1ccc(-c2ccc3cccc(-c4cc5c([nH]4)CCNC5=O)c3n2)c(F)c1", "TARGET_SYSTEM": "Pim-2 (Homo sapiens (Human))", "IC50 [nM]": 46.1}
{"COMPOUND": "Cc1cccc(Oc2ccc3cccc(-c4cc5c([nH]4)CCNC5=O)c3n2)c1", "TARGET_SYSTEM": "Pim-2 (Homo sapiens (Human))", "IC50 [nM]": 47.8}
{"COMPOUND": "Cc1nc2cccc(-c3cc4c([nH]3)CCNC4=O)c2nc1Nc1ccccc1", "TARGET_SYSTEM": "Pim-2 (Homo sapiens (Human))", "IC50 [nM]": 1.6}
{"COMPOUND": "Cc1nc2cccc(-c3cc4c([nH]3)CCNC4=O)c2nc1NC1CCC(=O)N(C)C1 (racemic) [Example 195, 2,2,2-trifluoroacetate]", "TARGET_SYSTEM": "Pim-2 (Homo sapiens (Human))", "IC50 [nM]": 177}
{"COMPOUND": "O=C1NCCc2[nH]c(-c3cccc4ccc(Oc5ccc(Cl)cc5)nc34)cc21", "TARGET_SYSTEM": "Pim-2 (Homo sapiens (Human))", "IC50 [nM]": 44.9}
{"COMPOUND": "Cc1nc2cccc(-c3cc4c([nH]3)CCNC4=O)c2nc1NC(C)C", "TARGET_SYSTEM": "Pim-2 (Homo sapiens (Human))", "IC50 [nM]": 4.9}
{"COMPOUND": "O=C1NCCc2[nH]c(-c3cccc4ccc(Cl)nc34)cc21", "TARGET_SYSTEM": "Pim-2 (Homo sapiens (Human))", "IC50 [nM]": 636}
{"COMPOUND": "O=C1NCCn2cc(-c3cccc4ccc(Nc5ccccc5)nc34)cc21", "TARGET_SYSTEM": "Pim-2 (Homo sapiens (Human))", "IC50 [nM]": 17.9}
{"COMPOUND": "Cc1ccc(C(N)=O)cc1-c1ccc2cccc(-c3cc4c([nH]3)CCNC4=O)c2n1", "TARGET_SYSTEM": "Pim-2 (Homo sapiens (Human))", "IC50 [nM]": 52.9}
{"COMPOUND": "O=C1NCCc2[nH]c(-c3cccc4ccc(Nc5ccc(Cl)cc5)nc34)cc21", "TARGET_SYSTEM": "Pim-2 (Homo sapiens (Human))", "IC50 [nM]": 20.4}
{"COMPOUND": "O=C1NCCc2[nH]c(-c3cccc4ccc(Nc5ccccc5F)nc34)cc21", "TARGET_SYSTEM": "Pim-2 (Homo sapiens (Human))", "IC50 [nM]": 4.6}
{"COMPOUND": "Cc1nc2cccc(-c3cc4c([nH]3)CCNC4=O)c2nc1N[C@@H](C)C(N)=O", "TARGET_SYSTEM": "Pim-2 (Homo sapiens (Human))", "IC50 [nM]": 227}
{"COMPOUND": "Cc1nc2cccc(-c3cc4c([nH]3)CCNC4=O)c2nc1NC1CC1", "TARGET_SYSTEM": "Pim-2 (Homo sapiens (Human))", "IC50 [nM]": 2}
{"COMPOUND": "COC(=O)[C@H](C)Nc1nc2c(-c3cc4c([nH]3)CCNC4=O)cccc2nc1C", "TARGET_SYSTEM": "Pim-2 (Homo sapiens (Human))", "IC50 [nM]": 154}
{"COMPOUND": "O=C1NCCc2[nH]c(-c3cccc4ccc(O[C@H]5CCCNC5)nc34)cc21", "TARGET_SYSTEM": "Pim-2 (Homo sapiens (Human))", "IC50 [nM]": 62}
{"COMPOUND": "CN(c1ccccc1)c1ccc2cccc(-c3cc4c([nH]3)CCNC4=O)c2n1", "TARGET_SYSTEM": "Pim-2 (Homo sapiens (Human))", "IC50 [nM]": 6.8}
{"COMPOUND": "Cc1nc2cccc(-c3cc4c([nH]3)CCNC4=O)c2nc1NC1(C)CCC1", "TARGET_SYSTEM": "Pim-2 (Homo sapiens (Human))", "IC50 [nM]": 1.6}
